Molecular target: T1, Human ACVR2A (human, UniProt P27037 20-135, limits assumed); note: test concentration or dose not given here
T1 construct: also called activin receptor, type II A
T1 sequence (P27037 20-135 limits assumed): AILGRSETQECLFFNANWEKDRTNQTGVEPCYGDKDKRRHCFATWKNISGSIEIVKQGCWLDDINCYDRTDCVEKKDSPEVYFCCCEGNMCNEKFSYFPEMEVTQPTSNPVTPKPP
Test: ELISA
Readout: optical density

Known results for binders:
• 368_F11 (antibody, V domains shown) VH: EVQLLESGGGLVQPGGSLRLSCAASGFTFSDYGMNWVRQAPGKGLEWVSGINYNGGYTSYADSVKGRFTISRDNSKNTLYLQMNSLRAEDTAVYYCARSANWHDTHLDYWGQGTLVTVSS VL: DIQMTQSPSSLSASVGDRVTITCRASQSIVSYVNWYQQKPGKAPKLVIYAATSRASGVPSRFSGSGSGTDFTLTISSLQPEDFATYYCQQSYNNPLTFGGGTKVEIK = 2.58 OD
• 373_C04 (antibody, V domains shown) VH: EVQLLESGGGLVQPGGSLRLSCAASGFTFSSYSMNWVRQAPGKGLEWVANINYNSGYTGYADSVKGRFTISRDNSKNTLYLQMNSLRAEDTAVYYCARSANWHDTALDYWGQGTLVTVSS VL: DIQMTQSPSSLSASVGDRVTITCRASQSIISYVNWYQQKPGKAPKLVIYAVTSRASGVPSRFSGSGSGTDFTLTISSLQPEDFATYYCQQSYNSPLTFGGGTKVEIK = 3.36 OD

Note: attention shifts to another entry.
### Prompt Quote optical density reported for 373_D05 (antibody, V domains shown) VH: EVQLLESGGGLVQPGGSLRLSCAASGFTFSSYSMNWVRQAPGKGLEWVSGINYNSGYKGYADSVKGRFTISRDNSKNTLYLQMNSLRAEDTAVYYCARSANWHDTALDYWGQGTLVTVSS VL: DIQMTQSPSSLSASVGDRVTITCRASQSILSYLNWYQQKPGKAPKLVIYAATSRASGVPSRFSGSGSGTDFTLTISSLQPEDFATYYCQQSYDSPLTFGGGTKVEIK please.
### Response 3.68 OD
